Here, each record is paired with measured % surv cells data.
Tested on: HepG2
Assay: Cell survival after transfection (Table 3); note: tested at 6.8 µM
Assay type: cell-based
Details: HepG2, DOPE, first value
# output: number + unit

Solved cases below.
CCCCCCCC/C=C\CCCCCCCC[n+]1ccc(CCCCCCCCCCCCCCCCC)cc1.[Cl-] [SF45] = 40.24%
CCCCCCCC/C=C\CCCCCCCC[n+]1ccc(CCCCCCCCCCC)cc1 [SF43] = 52.11%
CCCCCCCC/C=C\CCCCCCCC[n+]1ccc(CCCCCCCCC)cc1.[Cl-] [SF42] = 40.1%

[in] Record lookup: for HepG2, what % surv cells belongs to CCCCCCCCCCCCOC(=O)c1cc[n+](CCCCCCCCCCCC)cc1.[Cl-] [SF53] ?
[out] 37.51%

[in] Record lookup: for HepG2, what % surv cells belongs to CCCCCCCC/C=C\CCCCCCCC[n+]1ccc(CCC)cc1.[Cl-] [SF39] ?
[out] 24.55%

[in] Record lookup: for HepG2, what % surv cells belongs to CCCCCCCC/C=C\CCCCCCCC[n+]1ccc(C)cc1.[Cl-] [SF38] ?
[out] 23.6%

###

Test system: COS-7 and HepG2 cells
Test: Transfection with pCMV GFP plasmid, % GFP positive cells by FACS (cell line not given)
Assay type: cell-based
Conditions: Table 4; cell line and helper lipid not given
Lab note: compare % TE against 7%. Equal or greater, write Yes. Smaller, write No.

CCCCCCCC/C=C\CCCCCCCC[n+]1ccc(CCCCCCCCCCCCCCC)cc1.[Cl-] = Yes
CCCCCCCC/C=C\CCCCCCCC[n+]1ccc(CCCCC)cc1.[Cl-] = No
CCCCCCCC/C=C\CCCCCCCC[n+]1ccc(CCCCCCCCCCC)cc1 = Yes
CCCCCCCC/C=C\CCCCCCCC[n+]1ccc(CCCCCCCCCCCCCCCCC)cc1.[Cl-] = Yes

[in] Please indicate if the recorded % TE for CCCCCCCC/C=C\CCCCCCCC[n+]1ccc(CCCCCCCCCCCCCCCCCCC)cc1.[Cl-] meets or exceeds 7%.
[out] Yes

[in] Please indicate if the recorded % TE for CCCCCCCC/C=C\CCCCCCCC[n+]1ccc(C)cc1.[Cl-] meets or exceeds 7%.
[out] No

[in] Please indicate if the recorded % TE for CCCCCCCCCCCCOC(=O)c1cc[n+](CCCCCCCCCCCC)cc1.[Cl-] meets or exceeds 7%.
[out] Yes

[in] Please indicate if the recorded % TE for CCCCCCCC/C=C\CCCCCCCC[n+]1ccc(CCC)cc1.[Cl-] meets or exceeds 7%.
[out] No

[in] Please indicate if the recorded % TE for CCCCCCCC/C=C\CCCCCCCCCc1cc[n+](CCCCCCCCCCCCCCCCCC)cc1.[Cl-] meets or exceeds 7%.
[out] Yes

[in] Please indicate if the recorded % TE for CCCCCCCC/C=C\CCCCCCCC[n+]1ccc(CCCCCCCCC)cc1.[Cl-] meets or exceeds 7%.
[out] No

###

Tested on: COS-7 and HepG2 cells
Assay: Cell survival after transfection (cell line not given)
Assay type: cell-based
Details: Table 5; cell line and helper lipid not given
endpoint: % surv cells (%)
Numbers only; they are read as %.

CCCCCCCC/C=C\CCCCCCCC[n+]1ccc(CCCCCCCCCCCCCCCCCCC)cc1.[Cl-] = 87.81
CCCCCCCC/C=C\CCCCCCCC[n+]1ccc(CCCCCCCCC)cc1.[Cl-] = 75.02
CCCCCCCC/C=C\CCCCCCCC[n+]1ccc(CCCCCCCCCCC)cc1 = 85.51
CCCCCCCC/C=C\CCCCCCCCCc1cc[n+](CCCCCCCCCCCCCCCCCC)cc1.[Cl-] = 76.34
CCCCCCCC/C=C\CCCCCCCC[n+]1ccc(CCCCCCCCCCCCCCC)cc1.[Cl-] = 92.1
CCCCCCCC/C=C\CCCCCCCC[n+]1ccc(CCCCCCCCCCCCCCCCC)cc1.[Cl-] = 93.02

Please find the next molecule below.
[in] Using the record for CCCCCCCCCCCCOC(=O)c1cc[n+](CCCCCCCCCCCC)cc1.[Cl-] , report its % surv cells.
[out] 91.6

###

Test system: COS-7 and HepG2 cells
Test: Cell survival after transfection (cell line not given)
Format: cell-based
Settings: Table 11; first value; cell line and helper lipid not given
endpoint: % surv (%)
Numbers only; they are read as %.

CCCCCCCC/C=C\CCCCCCCC[n+]1ccc(CCCCCCCCCCCCCCCCC)cc1.[Cl-] = 90.01
CCCCCCCC/C=C\CCCCCCCC[n+]1ccc(CCCCCCCCCCCCCCCCCCC)cc1.[Cl-] = 88.63
CCCCCCCC/C=C\CCCCCCCC[n+]1ccc(CCCCCCCCC)cc1.[Cl-] = 86.37
CCCCCCCC/C=C\CCCCCCCC[n+]1ccc(CCCCCCCCCCC)cc1 = 85.42
CCCCCCCC/C=C\CCCCCCCCCc1cc[n+](CCCCCCCCCCCCCCCCCC)cc1.[Cl-] = 87.02

[in] Using the record for CCCCCCCC/C=C\CCCCCCCC[n+]1ccc(CCCCCCCCCCCCCCC)cc1.[Cl-] , report its % surv.
[out] 90.36

[in] Using the record for CCCCCCCC/C=C\CCCCCCCCC(CCCCCCCC/C=C\CCCCCCCC)c1cc[n+](C)cc1.[Cl-] [S2, reference compound] , report its % surv.
[out] 87.64

[in] Using the record for CCCCCCCCCCCCOC(=O)c1cc[n+](CCCCCCCCCCCC)cc1.[Cl-] , report its % surv.
[out] 84.51

###

Test system: COS-7 and HepG2 cells
Test: Cell survival after transfection (cell line not given)
Format: cell-based
Settings: Table 4; cell line and helper lipid not given
endpoint: % surv cells
# output: number + unit

Solved cases below.
CCCCCCCC/C=C\CCCCCCCC[n+]1ccc(CCCCCCC)cc1.[Cl-] = 60.54%
CCCCCCCC/C=C\CCCCCCCC[n+]1ccc(CCCCCCCCCCCCCCCCCCC)cc1.[Cl-] = 78.64%
CCCCCCCC/C=C\CCCCCCCC[n+]1ccc(CCCCCCCCCCCCCCC)cc1.[Cl-] = 66.51%
CCCCCCCC/C=C\CCCCCCCC[n+]1ccc(CCCCCCCCCCC)cc1 = 68.12%

Please find the next compound below.
[in] Using the record for CCCCCCCC/C=C\CCCCCCCC[n+]1ccc(C)cc1.[Cl-] , report its % surv cells.
[out] 63.19%

###

Tested on: COS-7 and HepG2 cells
Test: Cell survival after transfection (cell line not given)
Format: cell-based
Details: Table 9; cell line and helper lipid not given
Note to self: % surv cells under 70% means Satisfied, ties and anything higher get Not satisfied.

Below, 4 molecules whose answers are already recorded.
CCCCCCCCCCCCCCCC[n+]1ccc(CCCCCCCCCCCCC)cc1.[Cl-] = Satisfied
CCCCCCCC/C=C\CCCCCCCC[n+]1ccc(CCCCCCCCCCCCC)cc1.[Cl-] = Not satisfied
CCCCCCCCCCCCCCCCCC[n+]1ccc(CCCCCCCCCCCCC)cc1.[Cl-] [SF37, 1-stearyl-4-tridecyl-pyridinium Chloride] = Satisfied
CCCCCCCCCCCCCc1cc[n+](CCCCCCCC)cc1.[Cl-] [SF32, 1-octyl-4-tridecyl-pyridinium Chloride] = Satisfied

[in] Is 70% strictly greater than the molecule's reported % surv cells? molecule: CCCCCCCC/C=C\CCCCCCCCC(CCCCCCCC/C=C\CCCCCCCC)c1cc[n+](C)cc1.[Cl-] [S2, reference compound]
[out] Satisfied

###

System: COS-7 and HepG2 cells
Assay: Cell survival after transfection (cell line not given)
Assay type: cell-based
Details: Table 4; cell line and helper lipid not given
endpoint: % surv cells
# output: number + unit

CCCCCCCC/C=C\CCCCCCCC[n+]1ccc(CCCCC)cc1.[Cl-] [SF40] = 69.87%
CCCCCCCC/C=C\CCCCCCCCCc1cc[n+](CCCCCCCCCCCCCCCCCC)cc1.[Cl-] [SF46] = 72.57%
CCCCCCCCCCCCOC(=O)c1cc[n+](CCCCCCCCCCCC)cc1.[Cl-] [SF53] = 65.91%

[in] Using the record for CCCCCCCC/C=C\CCCCCCCC[n+]1ccc(CCCCCCCCC)cc1.[Cl-] [SF42] , report its % surv cells.
[out] 70.14%

[in] Using the record for CCCCCCCC/C=C\CCCCCCCC[n+]1ccc(CCC)cc1.[Cl-] [SF39] , report its % surv cells.
[out] 66.48%

[in] Using the record for CCCCCCCC/C=C\CCCCCCCC[n+]1ccc(CCCCCCCCCCCCCCCCC)cc1.[Cl-] [SF45] , report its % surv cells.
[out] 67.4%

###

System: HepG2
Experiment: Cell survival after transfection (Table 3); note: tested at 6.8 µM
Assay type: cell-based
Details: HepG2, DOPE, mean
endpoint: % surv cells Mean (%)
Numbers only; they are read as %.

Solved cases below.
CCCCCCCC/C=C\CCCCCCCC[n+]1ccc(C)cc1.[Cl-] = 22.05
CCCCCCCC/C=C\CCCCCCCC[n+]1ccc(CCCCCCC)cc1.[Cl-] = 34.62
CCCCCCCC/C=C\CCCCCCCC[n+]1ccc(CCCCCCCCCCCCCCC)cc1.[Cl-] = 49.18

[in] Using the record for CCCCCCCC/C=C\CCCCCCCC[n+]1ccc(CCCCCCCCCCCCCCCCC)cc1.[Cl-] , report its % surv cells Mean.
[out] 31.565

[in] Using the record for CCCCCCCCCCCCOC(=O)c1cc[n+](CCCCCCCCCCCC)cc1.[Cl-] , report its % surv cells Mean.
[out] 37.51

Entry source: patent US20040259823A1
